Origin of values: paper PMC5345856

# TARGET ENTITY: T1, RID1 (Oryza sativa (rice), UniProt B1B534 1-475)
# T1 sequence: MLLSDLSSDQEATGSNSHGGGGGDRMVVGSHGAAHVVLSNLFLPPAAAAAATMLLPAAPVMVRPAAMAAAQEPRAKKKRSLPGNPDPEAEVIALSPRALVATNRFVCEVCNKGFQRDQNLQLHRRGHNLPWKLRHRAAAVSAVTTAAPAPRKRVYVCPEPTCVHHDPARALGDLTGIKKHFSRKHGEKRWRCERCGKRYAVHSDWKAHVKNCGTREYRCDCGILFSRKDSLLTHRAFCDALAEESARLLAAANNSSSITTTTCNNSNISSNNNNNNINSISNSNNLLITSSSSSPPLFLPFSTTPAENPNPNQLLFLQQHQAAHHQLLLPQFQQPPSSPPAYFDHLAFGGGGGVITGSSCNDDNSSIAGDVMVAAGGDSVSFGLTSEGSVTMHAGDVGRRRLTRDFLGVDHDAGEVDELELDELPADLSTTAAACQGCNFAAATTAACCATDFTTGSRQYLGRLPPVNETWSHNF
# PROTOCOL DESCRIPTION: EMSA; 10 uM ZnCl2; 10 mM Tris (pH not stated), 50 mM KCl, 10 uM ZnCl2, 1 mM DTT, 1 ug/ul poly(dI-dC), 0.1% BSA, 2.5% glycerol, 0.05% NP-40; 50 fmol probe; 30 min on ice; 6% native PAGE
# PROTOCOL CONDITIONS: protein: recombinant; tags: His (pET-32a; vector Trx fusion not mentioned); label: 5' biotin; blunt

- BINDER: "bio-RFT1 (dsDNA) DNA 1: ATAACGTTTGACCATTTGTCTTATTAAATATATATATAAA DNA 2: TTTATATATATATTTAATAAGACAAATGGTCAAACGTTAT"
  binding result: "binds"
- BINDER: "bio-RFT1-M (dsDNA) DNA 1: ATAACGTTTGACCATTAATCTTATTAAATATATATATAAA DNA 2: TTTATATATATATTTAATAAGATTAATGGTCAAACGTTAT"
  binding result: "no binding"
- BINDER: "bio-Hd3a (dsDNA) DNA 1: CTTATCTTGCCCGGACAAATCGAGCTAAGCAA DNA 2: TTGCTTAGCTCGATTTGTCCGGGCAAGATAAG"
  binding result: "binds"
- BINDER: "bio-Hd3a-M (dsDNA) DNA 1: CTTATCTTGCCCGGATTAATCGAGCTAAGCAA DNA 2: TTGCTTAGCTCGATTAATCCGGGCAAGATAAG"
  binding result: "no binding"
